The values you see were collected from paper PMC3913857.

Procedure Details: clinical
Set-up: species or system Japanese patients
Test Conditions: human, in vivo, po, 160 mg
Metric Name: AUC(0-t) (ng·h/mL)
Please give a number only; it is taken to be in ng·h/mL.

So for CNC(=O)c1cc(Oc2ccc(NC(=O)Nc3ccc(Cl)c(C(F)(F)F)c3)c(F)c2)ccn1 [Regorafenib] , the logged AUC(0-t) turned out to be 16400

====

Procedure Details: clinical
Parameters: species or system Japanese patients
Test Conditions: human, in vivo, po, 160 mg
Description: Patients who provided at least one evaluable pharmacokinetic sample were eligible for pharmacokinetic analyses. Plasma concentrations of regorafenib and its metabolites were determined by fully validated liquid chromatography–tandem mass spectrometry after protein precipitation with acetonitrile/ammonium acetate buffer containing the internal standards [^2H3 ^15N] BAY 73-4506 (for regorafenib), [^2H3 ^15N] […] BAY 81-8752 (for the M5 metabolite).
Marks after values point to notes of the source that are not given here.
Metric Name: AUC

So for `CNC(=O)c1cc(Oc2ccc(NC(=O)Nc3ccc(Cl)c(C(F)(F)F)c3)c(F)c2)ccn1` , the logged AUC turned out to be 34600 ng·h/mL

So for `CNC(=O)c1cc(Oc2ccc(NC(=O)Nc3ccc(Cl)c(C(F)(F)F)c3)c(F)c2)cc[n+]1[O-]` , the logged AUC turned out to be 7,820.6 (301.2) μg.h/L

So for `NC(=O)c1cc(Oc2ccc(NC(=O)Nc3ccc(Cl)c(C(F)(F)F)c3)c(F)c2)cc[n+]1[O-]` , the logged AUC turned out to be 3,441.8 (112.0)^a μg.h/L
